Assignment: determine reported Half-life of Leu6 amide proton (HDX) for the given compounds.
experimental_protocol: HDX of amide protons by NMR in CDCl3:CD3OD (8:2)
study_conditions: 20% CD3OD in CDCl3
Starred links: 1 amine or outer side, 2 acyl side, 3 side chain; linkers in the order of their positions; H or OH if unused. Non-standard residues stand in square brackets, D forms with d. Residues, ends and D or L forms follow the SMILES beside them. X1 = CC(C)C[C@H](NC(=S)[C@H](Cc1ccc(O)cc1)N[*:1])C(=O)[*:2]; X2 = CC(C)C[C@H](NC(=S)[C@@H](CC(C)C)N[*:1])C(=O)[*:2]; X3 = CC(C)C[C@H](N[*:1])C(=S)N[C@H](CC(C)C)C(=O)[*:2]

## Task Requested read-out: Half-life of Leu6 amide proton (HDX). Entry: CC(C)C[C@@H]1NC(=O)[C@H](Cc2ccc(O)cc2)NC(=O)[C@H]2CCCN2C(=O)[C@H](CC(C)C)NC(=O)[C@H](CC(C)C)NC(=O)[C@@H](CC(C)C)NC1=O [compound 10, cyclo(-D-Leu^1-Leu-Leu-D-Pro-Tyr-Leu^6-)] (cyclo(LL[dP]YL[dL]))
## Result > 24 h

## Task Also need CC(C)C[C@@H]1NC(=O)[C@@H](CC(C)C)NC(=O)[C@H](CC(C)C)NC(=S)[C@H](Cc2ccc(O)cc2)NC(=O)[C@H]2CCCN2C(=O)[C@H](CC(C)C)NC1=O [10e] (cyclo(LL[dP][X1][dL])) , thanks.
## Result > 24 h

## Task Thanks! And CC(C)C[C@@H]1NC(=O)[C@H](Cc2ccc(O)cc2)NC(=O)[C@H]2CCCN2C(=O)[C@H](CC(C)C)NC(=O)[C@H](CC(C)C)NC(=S)[C@@H](CC(C)C)NC1=O [10a] (cyclo(L[dP]YL[X2])) ?
## Result > 24 h

## Task CC(C)C[C@@H]1NC(=O)[C@@H](CC(C)C)NC(=S)[C@H](CC(C)C)NC(=O)[C@H](Cc2ccc(O)cc2)NC(=O)[C@H]2CCCN2C(=O)[C@H](CC(C)C)NC1=O [10f] (cyclo(LL[dP]Y[X3])) ?
## Result > 24 h

---

experimental_protocol: in vitro
study_conditions: both, human, plasma
Starred links: 1 amine or outer side, 2 acyl side, 3 side chain; linkers in the order of their positions; H or OH if unused. Non-standard residues stand in square brackets, D forms with d. Residues, ends and D or L forms follow the SMILES beside them. X1 = CC(C)C[C@H](NC(=S)[C@H](Cc1ccc(O)cc1)N[*:1])C(=O)[*:2]; X6 = O=C([C@H](Cc1ccc(O)cc1)NC(=S)[C@H]1CCCN1[*:1])[*:2]; X2 = CC(C)C[C@H](NC(=S)[C@@H](CC(C)C)N[*:1])C(=O)[*:2]; X3 = CC(C)C[C@H](N[*:1])C(=S)N[C@H](CC(C)C)C(=O)[*:2]; X5 = CC(C)C[C@H](NC(=S)[C@H](CC(C)C)N[*:1])C(=O)[*:2]; X4 = CC(C)C[C@H](N[*:1])C(=S)N1CCC[C@@H]1C(=O)[*:2]
measured_property: remaining at 1 h (%)
Write the number in % without appending the unit.

## Task Find the recorded remaining at 1 h belonging to CC(C)C[C@@H]1NC(=O)[C@@H](CC(C)C)NC(=O)[C@H](CC(C)C)NC(=S)[C@H](Cc2ccc(O)cc2)NC(=O)[C@H]2CCCN2C(=O)[C@H](CC(C)C)NC1=O [10e] (cyclo(LL[dP][X1][dL])) and report it.
## Result 90

## Task Here is the next molecule: CC(C)C[C@@H]1NC(=O)[C@H](Cc2ccc(O)cc2)NC(=O)[C@H]2CCCN2C(=S)[C@H](CC(C)C)NC(=O)[C@H](CC(C)C)NC(=O)[C@@H](CC(C)C)NC1=O [10c] (cyclo(L[dL]L[X4]Y))
## Result 87

## Task Would you kindly repeat that for CC(C)C[C@@H]1NC(=O)[C@H](Cc2ccc(O)cc2)NC(=O)[C@H]2CCCN2C(=O)[C@H](CC(C)C)NC(=O)[C@H](CC(C)C)NC(=S)[C@@H](CC(C)C)NC1=O [10a] (cyclo(L[dP]YL[X2])) ?
## Result 94

## Task Field entry: CC(C)C[C@@H]1NC(=O)[C@@H](CC(C)C)NC(=S)[C@H](CC(C)C)NC(=O)[C@H](Cc2ccc(O)cc2)NC(=O)[C@H]2CCCN2C(=O)[C@H](CC(C)C)NC1=O [10f] (cyclo(LL[dP]Y[X3]))
## Result 92

## Task Query CC(C)C[C@@H]1NC(=O)[C@H](Cc2ccc(O)cc2)NC(=S)[C@H]2CCCN2C(=O)[C@H](CC(C)C)NC(=O)[C@H](CC(C)C)NC(=O)[C@@H](CC(C)C)NC1=O [10d] (cyclo(LL[X6]L[dL])) next
## Result 86

## Task Repeat for the following molecule: CC(C)C[C@@H]1NC(=O)[C@H](Cc2ccc(O)cc2)NC(=O)[C@H]2CCCN2C(=O)[C@H](CC(C)C)NC(=S)[C@H](CC(C)C)NC(=O)[C@@H](CC(C)C)NC1=O [10b] (cyclo(L[dL][X5][dP]Y))
## Result 91

## Task Would you kindly repeat that for CC(C)C[C@@H]1NC(=O)[C@H](Cc2ccc(O)cc2)NC(=O)[C@H]2CCCN2C(=O)[C@H](CC(C)C)NC(=O)[C@H](CC(C)C)NC(=O)[C@@H](CC(C)C)NC1=O [compound 10, cyclo(-D-Leu^1-Leu-Leu-D-Pro-Tyr-Leu^6-)] (cyclo(LL[dP]YL[dL])) ?
## Result 86

---

experimental_protocol: physchem
study_conditions: pH 7.4
Starred links: 1 amine or outer side, 2 acyl side, 3 side chain; linkers in the order of their positions; H or OH if unused. Non-standard residues stand in square brackets, D forms with d. Residues, ends and D or L forms follow the SMILES beside them. X2 = CC(C)C[C@H](NC(=S)[C@@H](CC(C)C)N[*:1])C(=O)[*:2]; X9 = O=C([C@@H]1CCCN1C(=S)[C@H](Cc1ccccc1)N[*:1])[*:2]; X15 = CC(C)C[C@@H](NC(=S)[C@H]1CCCN1[*:1])C(=O)[*:2]; X16 = CC(C)C[C@H](N[*:1])C(=S)N[C@H](C)C(=O)[*:2]; dNMeL = CN[C@H](CC(C)C)C(=O)O
measured_property: logD

## Task Entry under review: NCCCC[C@H](NC(=O)[C@@H](N)Cc1ccccc1)C(=O)O [compound 1] . Reported logD?
## Result -2.88

## Task Let us now turn to NCCCC[C@H](NC(=S)[C@@H](N)Cc1ccccc1)C(=O)O [1a]
## Result -2.12

## Task Query C[C@@H](O)[C@@H]1NC(=O)[C@H](CCCCN)NC(=O)[C@@H](Cc2c[nH]c3ccccc23)NC(=O)[C@H](Cc2ccccc2)NC(=O)[C@@H]2CCCN2C(=S)[C@H](Cc2ccccc2)NC1=O [13d] (cyclo(F[dW]KT[X9])) next
## Result -0.84

## Task Also check CC(C)C[C@@H]1NC(=O)[C@@H](CC(C)C)N(C)C(=O)[C@H](CC(C)C)NC(=O)[C@H](Cc2ccc(O)cc2)NC(=O)[C@H]2CCCN2C(=O)[C@H](CC(C)C)NC1=O [10g] (cyclo(LL[dP]YL[dNMeL]))
## Result 1.01

## Task Now the same for CN(CC(=O)O)C(=O)[C@@H](N)Cc1ccccc1 [3b]
## Result -1.73

## Task Entry to check: N[C@@H](Cc1ccccc1)C(=O)NCC(=O)O [compound 3] (H-Phe-Gly-OH)
## Result -2.22

## Task Follow-up entry: CSCC[C@H](NC(=O)[C@@H](N)Cc1ccccc1)C(=O)O [compound 6] (H-Phe-Met-OH)
## Result -1.41

## Task Try CC(C)[C@H](NC(=O)[C@@H](N)Cc1ccccc1)C(=O)O [compound 5] (H-Phe-Val-OH) next.
## Result -1.28

## Task For CC[C@H](C)[C@@H]1NC(=O)[C@@H]2CCCN2C(=O)[C@H]([C@@H](C)CC)NC(=O)[C@@H]2CCCN2C(=O)[C@H](Cc2ccccc2)NC(=O)[C@H](C)NC(=O)[C@H](C)NC1=O [compound 11, cyclo(-Ile^1-Ala-Ala-Phe-Pro-Ile-Pro^7-)] (cyclo(AAFPIPI)) then?
## Result 0.1

## Task And the next one, CC(C)C[C@@H]1NC(=O)[C@@H](CC(C)C)NC(=S)[C@H]2CCCN2C(=O)[C@H](CC(C)C)NC(=O)[C@@H](CC(C)C)NC(=O)[C@H](CC(C)C)NC(=O)[C@@H]2CCCN2C(=O)[C@@H](C)NC1=O [12c] (cyclo(L[dA]PL[dL]L[X15])) ?
## Result 2.3

## Task Check CC(C)C[C@@H]1NC(=O)[C@H](Cc2ccc(O)cc2)NC(=O)[C@H]2CCCN2C(=O)[C@H](CC(C)C)NC(=O)[C@H](CC(C)C)NC(=S)[C@@H](CC(C)C)NC1=O [10a] (cyclo(L[dP]YL[X2])) too.
## Result 1.21

## Task Request: CC(C)C[C@@H]1NC(=O)[C@@H]2CCCN2C(=O)[C@@H](C)NC(=S)[C@H](CC(C)C)NC(=O)[C@@H](CC(C)C)NC(=O)[C@H]2CCCN2C(=O)[C@H](CC(C)C)NC(=O)[C@@H](CC(C)C)NC1=O [12e] (cyclo([dL]L[dP][dL][X16]PL))
## Result 1.37
